# Experimental System: full-length beta-Catenin (Uniprot ID P35222) (Homo sapiens)
# Construct: 10 nM full-length beta-Catenin (Uniprot ID P35222)
# Assay Overview: Fluorescence polarization IC50 (beta-catenin / 5FAM-TCF4 10-53 competition)
# Assay type: binding
# Condition Parameters: fluorescence polarization, beta-catenin; read-out: FP EC50
Result Type: pIC50
Give bare numbers, as −log10 of the molar value.

[
  {
    "Molecule": "CC(=O)N1CCC[C@]12CC=CCCCC1(CCCC=CCCCOC(=O)N3CC[C@@](C(=O)N[C@@H](Cc4ccccc4Cl)C(=O)N[C@@H](Cc4csc5ccccc45)C(=O)N[C@H](C(N)=O)[C@@H](C)O)(C3)NC(=O)[C@H](CC(C)C)NC(=O)[C@H](Cc3ccccc3)NC(=O)[C@H](C)NC(=O)[C@H](C)NC(=O)[C@H](CC(=O)O)NC(=O)[C@H](CC(=O)O)NC1=O)NC(=O)[C@H](CC(C)(C)C)NC(=O)[C@H](CC(=O)O)NC2=O (some centres unmarked) [I-1068]",
    "Assay Result": 6.02
  },
  {
    "Molecule": "CC(=O)N1CCC[C@]12CC=CCCCC1(CCCC=CCCCOC(=O)N3CC[C@@](C(=O)N[C@@H](Cc4ccccc4Cl)C(=O)N[C@@H](Cc4csc5ccccc45)C(=O)N[C@@H](CCO)C(N)=O)(C3)NC(=O)[C@H](CCO)NC(=O)[C@H](Cc3ccccc3)NC(=O)[C@H](C)NC(=O)[C@H](C)NC(=O)[C@H](CN(CC(=O)O)CC(F)(F)F)NC(=O)[C@H](CC(=O)O)NC1=O)NC(=O)[C@H](CC(C)(C)C)NC(=O)[C@H](CC(=O)O)NC2=O (some centres unmarked) [I-993]",
    "Assay Result": 7.92
  },
  {
    "Molecule": "CC(=O)N1CCC[C@]12CC=CCCCC1(CCCC=CCCCCCC[C@@](C)(C(=O)N[C@@H](Cc3ccsc3)C(=O)N[C@@H](Cc3csc4ccccc34)C(=O)N[C@@H](CCC(N)=O)C(N)=O)NC(=O)[C@H](CC(N)=O)NC(=O)[C@H](Cc3ccccc3)NC(=O)[C@H](C)NC(=O)[C@H](C)NC(=O)[C@H](CN(CCCC(F)(F)F)CC(=O)O)NC(=O)[C@H](CC(=O)O)NC1=O)NC(=O)[C@H](CC(C)(C)C)NC(=O)[C@H](CC(=O)O)NC2=O (some centres unmarked) [I-1455]",
    "Assay Result": 7.89
  },
  {
    "Molecule": "CCN(CC(=O)O)C[C@@H]1NC(=O)[C@H](CC(=O)O)NC(=O)C2(CCCC=CCCCCCC[C@@](C)(C(=O)N[C@@H](Cc3ccccc3)C(=O)N[C@@H](Cc3c[nH]c4ccccc34)C(=O)N[C@@H](CCC(N)=O)C(N)=O)NC(=O)[C@H](C(C)C)NC(=O)[C@H](Cc3ccccc3)NC(=O)[C@H](C)NC(=O)[C@H](C)NC1=O)CCCC=CC[C@]1(CCCN1C(C)=O)C(=O)N[C@@H](CC(=O)O)C(=O)N[C@@H](C)C(=O)N2 (some centres unmarked) [I-173]",
    "Assay Result": 5.51
  }
]

Now take the following molecule into account.
So, CC(=O)N1CCC[C@]12CC=CCCCC1(CCCC=CCCCOC(=O)N3CC[C@@](C(=O)N[C@@H](Cc4ccsc4)C(=O)N[C@@H](Cc4csc5ccccc45)C(=O)N[C@H](C(N)=O)[C@@H](C)O)(C3)NC(=O)[C@H](CC(N)=O)NC(=O)[C@H](Cc3ccccc3)NC(=O)[C@H](C)NC(=O)[C@H](C)NC(=O)[C@H](CN(CC(=O)O)CC(F)(F)F)NC(=O)[C@H](CC(=O)O)NC1=O)NC(=O)[C@H](CC(C)(C)C)NC(=O)[C@H](CC(=O)O)NC2=O (some centres unmarked) [I-943] ? Its pIC50 was 5.70

====

# Experimental System: beta-catenin/TCF4 engagement (Homo sapiens, UniProt P35222)
# Construct: expressed in transfected cells; host or cells: HEK293
# Assay Overview: Nano-BRET target engagement assay (B-cat-Halo & TCF4-Luc in HEK293 cells)
# Type: cell-based
# Condition Parameters: absolute IC50; read-out: NanoBRET Abs IC50
pIC50: −log10 of the molar value.
Label 1.0 when pIC50 is at or above 5; anything below gets 0.0.

Query: In plain terms: is recorded pIC50 at least 5 for CCCC[C@@H]1NC(=O)[C@H](Cc2ccccc2)NC(=O)[C@H](C)NC(=O)[C@H](C)NC(=O)[C@H](CC(=O)O)NC(=O)[C@H](CC(=O)O)NC(=O)C2(CCCC=CCCCOC(=O)N3CC[C@@](C(=O)N[C@@H](Cc4ccccc4)C(=O)N[C@@H](Cc4csc5ccccc45)C(=O)N[C@@H](CCC(N)=O)C(N)=O)(C3)NC1=O)CCCC=CC[C@]1(CCCN1C(C)=O)C(=O)N[C@@H](CC(=O)O)C(=O)N[C@@H](CC(C)C)C(=O)N2 (stereo partly drawn) ?
Reply: 0.0

====

# Experimental System: full-length beta-Catenin (Uniprot ID P35222) (Homo sapiens, UniProt P35222)
# Construct: 10 nM full-length beta-Catenin (Uniprot ID P35222)
# Sequence (P35222 1-781): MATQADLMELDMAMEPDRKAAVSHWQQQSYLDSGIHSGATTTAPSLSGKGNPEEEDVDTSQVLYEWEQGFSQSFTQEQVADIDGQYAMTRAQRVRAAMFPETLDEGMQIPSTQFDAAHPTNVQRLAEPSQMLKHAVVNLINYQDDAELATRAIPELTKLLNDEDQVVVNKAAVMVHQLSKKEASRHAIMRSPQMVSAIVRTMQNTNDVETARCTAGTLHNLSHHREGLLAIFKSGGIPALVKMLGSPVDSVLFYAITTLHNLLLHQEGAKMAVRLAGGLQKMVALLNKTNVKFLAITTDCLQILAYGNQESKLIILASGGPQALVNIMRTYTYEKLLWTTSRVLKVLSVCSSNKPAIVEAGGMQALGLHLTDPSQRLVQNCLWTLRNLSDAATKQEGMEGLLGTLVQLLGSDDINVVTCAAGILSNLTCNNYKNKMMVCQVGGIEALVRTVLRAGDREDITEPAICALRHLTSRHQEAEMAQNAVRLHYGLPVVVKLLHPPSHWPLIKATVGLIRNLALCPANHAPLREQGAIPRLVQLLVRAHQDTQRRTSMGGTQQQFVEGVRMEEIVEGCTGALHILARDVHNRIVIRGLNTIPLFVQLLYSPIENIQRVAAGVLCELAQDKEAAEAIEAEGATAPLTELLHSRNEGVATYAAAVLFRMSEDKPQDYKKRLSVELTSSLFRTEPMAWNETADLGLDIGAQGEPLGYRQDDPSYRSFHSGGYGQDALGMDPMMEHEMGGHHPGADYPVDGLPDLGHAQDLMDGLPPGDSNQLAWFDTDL
# Assay Overview: Fluorescence polarization IC50 (beta-catenin / 5FAM-TCF4 10-53 competition)
# Format: binding
# Condition Parameters: read-out: FP EC50
Field: IC50. Provide a value for each of the compounds that follow.
Give bare numbers, in nM.

[
  {
    "Compound": "CC(=O)N1CCC[C@]12CC=CCCCC1(CCCC=CCCCCCC[C@@](C)(C(=O)N[C@@H](Cc3ccccc3)C(=O)N[C@@H](Cc3csc4ccccc34)C(=O)N[C@@H](CCC(N)=O)C(N)=O)NC(=O)[C@H](CC(N)=O)NC(=O)[C@H](Cc3ccccc3)NC(=O)[C@H](C)NC(=O)[C@H](C)NC(=O)[C@H](CCC(=O)O)NC(=O)[C@H](CC(=O)O)NC1=O)NC(=O)[C@H](CC1CCCCC1)NC(=O)[C@H](CC(=O)O)NC2=O (some centres unmarked) [I-619]",
    "IC50 / nM": 44
  }
]

Switching to the query record.
Item CC(=O)N1CCC[C@]12CC=CCCCC1(CCCC=CCCCOC(=O)N3CC[C@@](C(=O)N[C@@H](Cc4ccccc4)C(=O)N[C@@H](Cc4csc5ccccc45)C(=O)N[C@@H](Cc4c[nH]cn4)C(N)=O)(C3)NC(=O)[C@H](CC(N)=O)NC(=O)[C@H](Cc3ccccc3)NC(=O)[C@H](C)NC(=O)[C@H](C)NC(=O)[C@H](CCC(=O)O)NC(=O)[C@H](CC(=O)O)NC1=O)NC(=O)[C@H](CC(C)(C)C)NC(=O)[C@H](CC(=O)O)NC2=O (some centres unmarked) [I-692] ; assay system full-length beta-Catenin (Uniprot ID P35222) (Homo sapiens, UniProt P35222); IC50 reported as 9

====

# Experimental System: full-length beta-Catenin (Uniprot ID P35222) (Homo sapiens, UniProt P35222)
# Construct: 10 nM full-length beta-Catenin (Uniprot ID P35222)
# Assay Overview: Fluorescence polarization IC50 (beta-catenin / 5FAM-TCF4 10-53 competition)
# Type: binding
# Condition Parameters: fluorescence polarization; read-out: beta-Catenin FP IC50
Result Type: log10(IC50) (log10 of the value in nM)
Plainly stated, the numbers are log10 of IC50 given in nM.

[
  {
    "Compound": "CC(=O)N1CCC[C@]12CC=CCCCC1(CCCC=CCCCOC(=O)N3CC[C@@](C(=O)N[C@@H](Cc4ccsc4)C(=O)N[C@@H](Cc4csc5ccccc45)C(=O)N[C@@H](CCC(N)=O)C(N)=O)(C3)NC(=O)[C@H](CC(N)=O)NC(=O)[C@H](CCc3ccccc3)NC(=O)[C@H](C)NC(=O)[C@H](C)NC(=O)[C@H]([C@@H](C)O)NC(=O)[C@H](CC(N)=O)NC1=O)NC(=O)[C@H](CC(C)(C)C)NC(=O)[C@H](CC(=O)O)NC2=O (some centres unmarked)",
    "Experimental System": "full-length beta-Catenin (Uniprot ID P35222) (Homo sapiens, UniProt P35222)",
    "Assay Result": 3.95
  },
  {
    "Compound": "CC(=O)N1CCC[C@]12CC=CCCCC1(CCCC=CCCCOC(=O)N3CC[C@@](C(=O)N[C@@H](Cc4ccccc4)C(=O)N[C@@H](Cc4csc5ccccc45)C(=O)N[C@@H](CCC(N)=O)C(N)=O)(C3)NC(=O)[C@H](CC(C)C)NC(=O)[C@H](Cc3ccccc3)NC(=O)[C@H](C)NC(=O)[C@H](C)NC(=O)[C@H](Cc3c[nH]cn3)NC(=O)[C@H](CC(=O)O)NC1=O)NC(=O)[C@H](CC(C)(C)C)NC(=O)[C@H](CC(N)=O)NC2=O (some centres unmarked)",
    "Experimental System": "full-length beta-Catenin (Uniprot ID P35222) (Homo sapiens, UniProt P35222)",
    "Assay Result": 2.45
  },
  {
    "Compound": "CC(=O)N1CCC[C@]12CC=CCCCC1(CCCC=CCCCCCC[C@@](C)(C(=O)N[C@@H](Cc3ccccc3)C(=O)N[C@@H](Cc3csc4ccccc34)C(=O)N[C@@H](Cc3cn(C)cn3)C(N)=O)NC(=O)[C@H](CC(N)=O)NC(=O)[C@H](Cc3ccccc3)NC(=O)[C@H](C)NC(=O)[C@H](C)NC(=O)[C@H](CCC(=O)O)NC(=O)[C@H](CC(=O)O)NC1=O)NC(=O)[C@H](C)NC(=O)[C@H](CC(=O)O)NC2=O (some centres unmarked) [I-478]",
    "Experimental System": "full-length beta-Catenin (Uniprot ID P35222) (Homo sapiens, UniProt P35222)",
    "Assay Result": 1.85
  }
]

Hi, could you look up log10(IC50) for each item in my list?
1. CC(=O)N1CCC[C@]12CC=CCCCC1(CCCC=CCCCOC(=O)N3CC[C@@](C(=O)N[C@@H](Cc4ccccc4C(F)(F)F)C(=O)N[C@@H](Cc4csc5ccccc45)C(=O)N[C@@H](C)C(N)=O)(C3)NC(=O)[C@H](CC(C)C)NC(=O)[C@H](Cc3ccccc3)NC(=O)[C@H](C)NC(=O)[C@H](CCC(=O)N3CCOCC3)NC(=O)[C@H](Cc3cccc(C(=O)O)c3)NC(=O)[C@H](CC(=O)O)NC1=O)NC(=O)[C@H](CC(C)(C)C)NC(=O)[C@H](CC(=O)O)NC2=O (some centres unmarked)
2. CC(=O)N1CCC[C@]12CC=CCCCC1(CCCC=CCCCOC(=O)N3CC[C@@](C(=O)N[C@@H](Cc4ccccc4C(F)(F)F)C(=O)N[C@@H](Cc4csc5ccccc45)C(=O)N[C@@H](CCC(=O)N(C)C)C(N)=O)(C3)NC(=O)[C@H](CC(C)C)NC(=O)[C@H](Cc3ccccc3)NC(=O)[C@H](C)NC(=O)[C@H](C)NC(=O)[C@H](Cc3cccc(C(=O)O)c3)NC(=O)[C@H](CC(=O)O)NC1=O)NC(=O)[C@H](CC(C)(C)C)NC(=O)[C@H](CC(=O)O)NC2=O (some centres unmarked)

Reply:
1: 0.70; 2: 1.15
